List of inhibition at 0.01 µM values.
molecular target: T1, Recombinant human CDK9/cyclin T1 (Homo sapiens, UniProt P50750); experiment: CDK9 enzyme inhibitory activity (ADP-Glo kinase assay); assay type: biochemical; conditions: CDK9 enzyme activity; compound 10 nM; average of two independent repeats; read-out: Inhibition rate at different concentrations (%) 10 nM
T1 construct: purchased Carna bioscience 04-110
T1 sequence (P50750 whole entry): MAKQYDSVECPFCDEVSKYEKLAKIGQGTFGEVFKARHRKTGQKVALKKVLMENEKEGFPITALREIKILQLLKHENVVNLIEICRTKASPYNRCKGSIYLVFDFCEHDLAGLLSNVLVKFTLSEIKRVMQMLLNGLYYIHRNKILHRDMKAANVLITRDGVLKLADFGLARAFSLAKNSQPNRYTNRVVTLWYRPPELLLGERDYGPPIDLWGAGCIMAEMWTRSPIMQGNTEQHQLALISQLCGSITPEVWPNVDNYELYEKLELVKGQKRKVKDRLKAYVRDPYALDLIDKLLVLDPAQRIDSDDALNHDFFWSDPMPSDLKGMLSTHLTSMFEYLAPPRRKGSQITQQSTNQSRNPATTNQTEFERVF
T1 sequence (O60563 whole entry partner): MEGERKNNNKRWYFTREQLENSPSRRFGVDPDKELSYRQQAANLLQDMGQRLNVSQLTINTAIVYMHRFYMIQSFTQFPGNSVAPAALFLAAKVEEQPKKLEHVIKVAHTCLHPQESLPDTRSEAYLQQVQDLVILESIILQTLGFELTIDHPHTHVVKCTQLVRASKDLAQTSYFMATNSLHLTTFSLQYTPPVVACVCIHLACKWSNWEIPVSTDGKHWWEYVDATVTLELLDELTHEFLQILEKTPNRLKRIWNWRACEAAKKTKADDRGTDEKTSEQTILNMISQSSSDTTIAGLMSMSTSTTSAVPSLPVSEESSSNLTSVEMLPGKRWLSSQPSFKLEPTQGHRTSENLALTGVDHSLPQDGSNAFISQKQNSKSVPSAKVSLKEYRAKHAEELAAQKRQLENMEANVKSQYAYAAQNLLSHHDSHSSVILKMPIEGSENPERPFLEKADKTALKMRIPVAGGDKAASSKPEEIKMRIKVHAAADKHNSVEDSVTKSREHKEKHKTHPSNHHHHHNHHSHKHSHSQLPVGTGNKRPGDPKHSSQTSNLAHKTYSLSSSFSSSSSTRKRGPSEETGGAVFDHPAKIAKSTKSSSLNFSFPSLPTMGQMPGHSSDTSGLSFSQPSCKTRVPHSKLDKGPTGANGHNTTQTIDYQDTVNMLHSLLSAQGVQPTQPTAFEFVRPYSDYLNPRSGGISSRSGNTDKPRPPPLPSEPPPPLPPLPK
Just the number plus its unit, please.

>  <MOLECULE>
COc1cc(F)ccc1-c1ccnc(NC(=S)NC2CCC(N)CC2)c1 (stereo not shown) [Example 38]

>  <ENDPOINT RESULT>
51%

$$$$

# input Value lookup for inhibition at 0.01 µM; key = NC1CCC(NC(=O)Nc2cc(-c3ccc(F)cc3OC(F)(F)F)ccn2)CC1 (stereo not shown) [Example 12]
# output 19.2%

# input Same read-out for [2H]C([2H])([2H])C(=O)NC1CCC(NC(=O)Nc2cc(-c3cnn4c3CC(C)(C)C4)c(Cl)cn2)CC1 (stereo not shown) [Example 54] ?
# output 70.8%

# input Same read-out for NC1CCC(NC(=O)Nc2cc(-c3ccc(F)cc3Cl)ccn2)CC1 (stereo not shown) [Example 10] ?
# output -12.6%

###

biological target: T1, Recombinant human CDK9/cyclin T1 (Homo sapiens, UniProt P50750); assay: CDK9 enzyme inhibitory activity (ADP-Glo kinase assay); type: biochemical; details: CDK9 enzyme activity; compound 100 nM; average of two independent repeats; read-out: Inhibition rate at different concentrations (%) 100 nM
T1 construct: purchased Carna bioscience 04-110
Records here are stratified by inhibition at 0.1 µM; strata: low = under 60%, intermediate = from 60% up to 90%, high = 90% and over

Reference set, count: 5
>  <COMPOUND>
CC(=O)NC1CCCC(NC(=O)Nc2cc(-c3cnn4c3CC(C)(C)C4)c(Cl)cn2)C1 (centres unmarked)

>  <LABEL CLASS>
intermediate

$$$$
>  <COMPOUND>
COCCN[C@H]1CC[C@H](NC(=O)Nc2cc(-c3ccc(F)cc3OC)ccn2)CC1

>  <LABEL CLASS>
high

$$$$
>  <COMPOUND>
CC1(C)Cc2c(-c3cc(NC(=O)NC4CCC(NCCF)CC4)ncc3Cl)cnn2C1 (centres unmarked)

>  <LABEL CLASS>
intermediate

$$$$
>  <COMPOUND>
COCCN(C)C1CCC(NC(=O)Nc2cc(-c3cnn4c3CC(C)(C)C4)c(Cl)cn2)CC1 (centres unmarked)

>  <LABEL CLASS>
high

$$$$
>  <COMPOUND>
CC(C)NC1CCC(NC(=O)Nc2cc(-c3cnn4c3CC(C)(C)C4)c(Cl)cn2)CC1 (centres unmarked)

>  <LABEL CLASS>
intermediate

$$$$

# input Entry CC1(C)Cc2c(-c3cc(NC(=O)NC4CCC(O)CC4)ncc3Cl)cnn2C1 (centres unmarked) belongs to which category?
# output high

###

target: CDK4/cyclin D1 (Homo sapiens, UniProt P11802); assay: CDK4 enzyme activity inhibition; assay type: biochemical; settings: compound 100 nM; read-out: CDK4/Cyc D1 inhibition rate % 100 nM
Sequence (P11802 whole entry, species assumed): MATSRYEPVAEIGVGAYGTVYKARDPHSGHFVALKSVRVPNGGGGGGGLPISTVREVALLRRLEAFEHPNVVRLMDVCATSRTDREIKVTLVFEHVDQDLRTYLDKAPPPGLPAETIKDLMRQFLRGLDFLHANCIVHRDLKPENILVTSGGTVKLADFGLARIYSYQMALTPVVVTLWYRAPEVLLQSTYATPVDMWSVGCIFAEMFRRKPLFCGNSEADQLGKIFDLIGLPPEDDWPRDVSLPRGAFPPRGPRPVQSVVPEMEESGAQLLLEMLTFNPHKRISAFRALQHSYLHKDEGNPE
Sequence (P24385 whole entry partner, species assumed): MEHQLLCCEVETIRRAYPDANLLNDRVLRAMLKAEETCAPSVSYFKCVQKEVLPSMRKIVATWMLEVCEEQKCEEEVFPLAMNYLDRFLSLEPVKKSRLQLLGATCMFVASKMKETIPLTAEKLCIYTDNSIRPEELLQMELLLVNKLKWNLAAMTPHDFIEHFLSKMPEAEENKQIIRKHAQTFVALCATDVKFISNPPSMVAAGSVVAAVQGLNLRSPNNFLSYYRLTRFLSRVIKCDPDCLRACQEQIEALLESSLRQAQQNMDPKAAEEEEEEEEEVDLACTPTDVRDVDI
PROPERTY: inhibition at 0.1 µM (%)
Reply numerically in %, unit not repeated.

Recorded results for 3 compounds are shown here.
>  <SMILES NOTATION>
CC(=O)N[C@H]1CC[C@@H](NC(=O)Nc2cc(-c3cnn4c3CC(C)(C)C4)c(Cl)cn2)CC1

>  <inhibition at 0.1 µM [%]>
18

$$$$
>  <SMILES NOTATION>
COCCN[C@H]1CC[C@H](NC(=O)Nc2cc(-c3ccc(F)cc3OC)ccn2)CC1

>  <inhibition at 0.1 µM [%]>
25.1

$$$$
>  <SMILES NOTATION>
COc1cc(F)ccc1-c1ccnc(NC(=O)N[C@H]2CC[C@H](N)CC2)c1

>  <inhibition at 0.1 µM [%]>
1.8

$$$$

# input Value lookup for inhibition at 0.1 µM; key = CC(=O)N[C@H]1CC[C@H](NC(=O)Nc2cc(-c3cnn4c3CC(C)(C)C4)c(Cl)cn2)CC1
# output 41.1

# input Same read-out for COCCN[C@H]1CC[C@H](NC(=O)Nc2cc(-c3cnn4c3CC(C)(C)C4)c(Cl)cn2)CC1 ?
# output 20.9

###

assay: PK parameters in mice after iv and po administration (LC-MS/MS of plasma); assay type: in vivo; settings: mouse, plasma, po
PROPERTY: AUC(0-t) (ng·h/mL)
Reply numerically in ng·h/mL, unit not repeated.

Recorded results for 2 compounds are shown here.
>  <COMPOUND>
COCCN[C@H]1CC[C@H](NC(=O)Nc2cc(-c3cnn4c3CC(C)(C)C4)c(Cl)cn2)CC1

>  <AUC(0-t), ng·h/mL>
601

$$$$
>  <COMPOUND>
CC(=O)N[C@H]1CC[C@H](NC(=O)Nc2cc(-c3cnn4c3CC(C)(C)C4)c(Cl)cn2)CC1

>  <AUC(0-t), ng·h/mL>
98.8

$$$$

Moving on to the next compound.
# input Value lookup for AUC(0-t); key = CC(=O)N[C@@H]1CCC[C@H](C(=O)Nc2cc(-c3cnn4c3CC(C)(C)C4)c(Cl)cn2)C1 [AZD4573, reference compound]
# output 73.2

###

target: CDK4/cyclin D1 (Homo sapiens, UniProt P11802); test: CDK4 enzyme activity inhibition; format: biochemical; conditions: compound 10 nM; read-out: CDK4/Cyc D1 inhibition rate % 10 nM
PROPERTY: inhibition at 0.01 µM
Just the number plus its unit, please.

Recorded results for 4 molecules are shown here.
>  <SMILES NOTATION>
CC(=O)N[C@H]1CC[C@@H](NC(=O)Nc2cc(-c3cnn4c3CC(C)(C)C4)c(Cl)cn2)CC1

>  <inhibition at 0.01 µM>
9.5%

$$$$
>  <SMILES NOTATION>
COc1cc(F)ccc1-c1ccnc(NC(=O)N[C@H]2CC[C@H](N)CC2)c1

>  <inhibition at 0.01 µM>
-7%

$$$$
>  <SMILES NOTATION>
COCCN[C@H]1CC[C@H](NC(=O)Nc2cc(-c3ccc(F)cc3OC)ccn2)CC1

>  <inhibition at 0.01 µM>
7.2%

$$$$
>  <SMILES NOTATION>
COCCN[C@H]1CC[C@H](NC(=O)Nc2cc(-c3cnn4c3CC(C)(C)C4)c(Cl)cn2)CC1

>  <inhibition at 0.01 µM>
11.1%

$$$$

Moving on to the next molecule.
# input Value lookup for inhibition at 0.01 µM; key = CC(=O)N[C@H]1CC[C@H](NC(=O)Nc2cc(-c3cnn4c3CC(C)(C)C4)c(Cl)cn2)CC1
# output 13.6%

###

List of inhibition at 0.01 µM values.
molecular target: T1, Recombinant human CDK9/cyclin T1 (Homo sapiens, UniProt P50750); assay: CDK9 enzyme inhibitory activity (ADP-Glo kinase assay); type: biochemical; conditions: CDK9 enzyme activity; compound 10 nM; average of two independent repeats; read-out: Inhibition rate at different concentrations (%) 10 nM
T1 construct: purchased Carna bioscience 04-110
Reply numerically in %, unit not repeated.

Recorded results for 5 compounds are shown here.
>  <COMPOUND>
CC1(C)Cc2c(-c3cc(NC(=O)NCCCN)ncc3Cl)cnn2C1

>  <UNITS LABEL>
%

>  <inhibition at 0.01 µM>
45

$$$$
>  <COMPOUND>
CC1(C)Cc2c(-c3cc(NC(=O)NC4CCCC(N)CC4)ncc3Cl)cnn2C1 (stereo not shown)

>  <UNITS LABEL>
%

>  <inhibition at 0.01 µM>
40

$$$$
>  <COMPOUND>
COCCNC1CCC(NC(=O)Nc2cc(-c3ccc(F)cc3OC)c(Cl)cn2)CC1 (stereo not shown)

>  <UNITS LABEL>
%

>  <inhibition at 0.01 µM>
57.1

$$$$
>  <COMPOUND>
COCCNCCCNC(=O)Nc1cc(-c2ccc(F)cc2OC)ccn1

>  <UNITS LABEL>
%

>  <inhibition at 0.01 µM>
7

$$$$
>  <COMPOUND>
CC1(C)Cc2c(-c3cc(NC(=O)N[C@@H]4CC[C@@H](N)C4)ncc3Cl)cnn2C1

>  <UNITS LABEL>
%

>  <inhibition at 0.01 µM>
70

$$$$

# input Value lookup for inhibition at 0.01 µM; key = COCC(C)NC1CCC(NC(=O)Nc2cc(-c3cnn4c3CC(C)(C)C4)c(Cl)cn2)CC1 (stereo not shown)
# output 61.3

# input Same read-out for COc1cc(F)ccc1-c1cc(NC(=O)NC2CCC(NC3CC3)CC2)ncc1Cl (stereo not shown) ?
# output 37.8

###

target: CDK1/cyclin B (Homo sapiens); assay: CDK1 enzyme activity inhibition; format: biochemical; details: compound 100 nM; read-out: CDK1/Cyc B inhibition rate % 100 nM
Sequence (P06493 whole entry, species assumed): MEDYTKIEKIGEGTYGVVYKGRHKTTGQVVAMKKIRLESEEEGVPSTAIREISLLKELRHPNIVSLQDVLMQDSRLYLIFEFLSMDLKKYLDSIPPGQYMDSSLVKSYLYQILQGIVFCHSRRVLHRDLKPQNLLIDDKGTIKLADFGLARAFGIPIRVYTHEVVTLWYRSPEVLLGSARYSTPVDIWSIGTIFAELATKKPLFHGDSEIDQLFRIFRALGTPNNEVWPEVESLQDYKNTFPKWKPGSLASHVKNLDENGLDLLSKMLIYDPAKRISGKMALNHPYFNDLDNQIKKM
Sequence (P14635 whole entry partner, species assumed): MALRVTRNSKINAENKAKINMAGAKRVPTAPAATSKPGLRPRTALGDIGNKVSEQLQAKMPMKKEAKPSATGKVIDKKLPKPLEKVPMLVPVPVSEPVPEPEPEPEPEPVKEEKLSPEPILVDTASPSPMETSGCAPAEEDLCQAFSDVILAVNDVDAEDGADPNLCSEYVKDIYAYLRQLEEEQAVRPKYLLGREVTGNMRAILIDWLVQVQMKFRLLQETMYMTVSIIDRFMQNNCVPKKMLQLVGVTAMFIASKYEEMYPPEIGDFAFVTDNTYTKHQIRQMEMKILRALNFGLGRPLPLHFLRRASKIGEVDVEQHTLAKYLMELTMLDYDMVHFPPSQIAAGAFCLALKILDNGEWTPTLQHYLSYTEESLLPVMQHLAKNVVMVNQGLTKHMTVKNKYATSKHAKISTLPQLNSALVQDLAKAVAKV
List of inhibition at 0.1 µM values.
Just the number plus its unit, please.

>  <SMILES NOTATION>
COc1cc(F)ccc1-c1ccnc(NC(=O)N[C@H]2CC[C@H](N)CC2)c1

>  <TARGET OF ASSAY>
CDK1/cyclin B (Homo sapiens)

>  <ENDPOINT RESULT>
7.8%

$$$$
>  <SMILES NOTATION>
CC(=O)N[C@H]1CC[C@H](NC(=O)Nc2cc(-c3cnn4c3CC(C)(C)C4)c(Cl)cn2)CC1

>  <TARGET OF ASSAY>
CDK1/cyclin B (Homo sapiens)

>  <ENDPOINT RESULT>
33.4%

$$$$
>  <SMILES NOTATION>
COCCN[C@H]1CC[C@H](NC(=O)Nc2cc(-c3ccc(F)cc3OC)ccn2)CC1

>  <TARGET OF ASSAY>
CDK1/cyclin B (Homo sapiens)

>  <ENDPOINT RESULT>
-1.4%

$$$$
>  <SMILES NOTATION>
CC(=O)N[C@H]1CC[C@@H](NC(=O)Nc2cc(-c3cnn4c3CC(C)(C)C4)c(Cl)cn2)CC1

>  <TARGET OF ASSAY>
CDK1/cyclin B (Homo sapiens)

>  <ENDPOINT RESULT>
47.4%

$$$$

Moving on to the next molecule.
# input Value lookup for inhibition at 0.1 µM; key = COCCN[C@H]1CC[C@H](NC(=O)Nc2cc(-c3cnn4c3CC(C)(C)C4)c(Cl)cn2)CC1
# output 11.6%

Value source: patent US20240351986A1
